Tested on: Huh-7
assaySummary: Cytotoxicity against human Huh-7 cells at 0.1 to 1 mM incubated for 6 days by neutral red staining based assay
Assay type: toxicity, cell-based
conditionsUsed: huh-7, 144 h, 1000 µM, dose 0.1-1 mM, time 6 day
readoutName: Activity

structureSmiles: Cc1cn([C@@H]2OC(CO)=C[C@H]2O)c(=O)[nH]c1=O
Activity: Non-Toxic

structureSmiles: CC(C)OC(=O)[C@H](C)N[P@](=O)(OCC1=C[C@@H](O)[C@H](n2ccc(=O)[nH]c2=O)O1)Oc1ccccc1
Activity: Non-Toxic

structureSmiles: Nc1ncnc2c1ncn2[C@@H]1OC(CO)=C[C@H]1O
Activity: Toxic

structureSmiles: O=c1ccn([C@@H]2OC(CO)=C[C@H]2O)c(=O)[nH]1
Activity: Non-Toxic

structureSmiles: CC(C)OC(=O)[C@H](C)N[P@](=O)(OCC1=C[C@@H](O)[C@H](n2cnc3c(N)ncnc32)O1)Oc1ccccc1
Activity: Toxic

structureSmiles: O=c1[nH]cnc2c1ncn2[C@@H]1OC(CO)=C[C@H]1O
Activity: Non-Toxic

Field: next compound
Qu. Report its Activity with Huh-7 as the test system: CC(C)OC(=O)[C@H](C)N[P@](=O)(OCC1=C[C@@H](O)[C@H](n2cnc3c(=O)[nH]c(N)nc32)O1)Oc1ccccc1
Ans. Non-Toxic
